Measured values drawn from PubChem BioAssay for this set.

target: Neurogenic locus notch homolog protein 3 (Homo sapiens); test: small molecules binding NOTCH3 protein – biochemical, 635/667 nm fluorescence, primary screen (AID 1096); conditions: small-molecule microarray, 635 nm fluorescence, higher = more signal
Measure name: composite z-score
Answer using only a numeral; do not append any unit.

Reference set (4 entries):
[
  {
    "Compound": "COC(=O)[C@@]1(Cc2ccc(F)cc2)[C@H]2c3cc(C(=O)N(C)C)n(CCc4c[nH]c5ccc(OC)cc45)c3C[C@H]2CN1C(=O)c1ccccc1",
    "Measure name": "composite z-score",
    "Measured value": 0.0599
  },
  {
    "Compound": "O=C1O[C@H](c2ccccc2)[C@H](c2ccccc2)N2[C@H]1[C@@H](C(=O)NC[C@H](O)c1ccccc1)[C@]1(C(=O)Nc3ccc(C#CC4(O)CCCCCC4)cc31)[C@H]2c1ccccc1OCCO",
    "Measure name": "composite z-score",
    "Measured value": 0.644
  },
  {
    "Compound": "CCCCC(=C=CC[C@H](O)c1ccccc1OCCO)C[C@H](O)c1cc(Cl)cc(Cl)c1O",
    "Measure name": "composite z-score",
    "Measured value": 0.224
  },
  {
    "Compound": "COc1ccccc1CN1C(=O)c2ccccc2[C@](Cc2ccccc2I)(C(=O)NCc2ccccc2)[C@@H]1c1ccc(CO)cc1",
    "Measure name": "composite z-score",
    "Measured value": -0.418
  }
]

Query: Specify composite z-score for [N-]=[N+]=NCc1ccccc1[C@@H]1OC(c2ccc(OCCCO)cc2)=N[C@]1(Cc1ccccc1N=[N+]=[N-])C(N)=O and stop.
Response: 1.04

Query: Specify composite z-score for COc1ccccc1CN1C(=O)c2ccccc2[C@](Cc2ccccc2I)(C(=O)NC2CC2)[C@@H]1c1ccc(CO)cc1 and stop.
Response: 1.06

Query: Specify composite z-score for O=C1OCCC=C[C@H]2OC34C=CCN(CCN5CCOCC5)C(=O)[C@H]3N(CCO)C(=O)[C@@H]4C12 (some centres not stated) and stop.
Response: 0.439
